# Tested on: EKVX NSCLC
# measurement-notes: NCI-60 one-dose screen, 48 h (100 = growth as untreated, 0 = no growth, -100 = all killed)
# reported-conditions: 10 µM unless noted
Compounds without any hit were thinned out: in the full panel of roughly 83,000, 20% have a hit.
Give true (1) when the value for growth is at least 70%. Give false (0) when it is less.

[[record]]
compound = "O=C1c2ccccc2C2N1CCC1CCc3ccccc3N12 (stereo not given)"
assigned_category = "true (1)"

[[record]]
compound = "NC(N)=N/N=C\\c1ccc(OCc2ccccc2)cc1"
assigned_category = "true (1)"

[[record]]
compound = "COc1cc(Cn2c(-c3ccccc3)cc3c2-c2oncc2CC3)cc(OC)c1OC"
assigned_category = "false (0)"

[[record]]
compound = "O=C(Cc1ccc(Nc2ccnc(C(F)(F)F)c2)cc1)N/N=C/c1ccccc1O"
assigned_category = "false (0)"

[[record]]
compound = "CC(=O)OC1Oc2cc(C)c(C)cc2-c2oc(=O)c(-c3ccc(F)cc3)cc21 (stereo not given)"
assigned_category = "true (1)"

[[record]]
compound = "Cc1ccc(NC(=O)c2nc(S(C)(=O)=O)oc2-c2ccc(F)cc2)cc1Nc1ccc2ncn(C)c(=O)c2c1"
assigned_category = "true (1)"

[[record]]
compound = "C#CC[C@@H]1C[C@]2(C)[C@H]3CC=C4[C@H]5[C@@H](C)[C@H](C)CC[C@]5(C(=O)NCCCCCCCCN)CC[C@@]4(C)[C@]3(C)CC[C@H]2C(C)(C)[C@H]1OC(C)=O"
assigned_category = "true (1)"

[[record]]
compound = "O=C(O)c1ccccc1N=Cc1ccccc1"
assigned_category = "true (1)"

[[record]]
compound = "CNC(=O)c1cc(Oc2ccc(NC(=O)c3nc(S(C)(=O)=O)sc3-c3ccc(F)cc3)cc2)ccn1"
assigned_category = "true (1)"

[[record]]
compound = "O=C(/C=C/c1cccc([N+](=O)[O-])c1)c1ccc(Nc2nc(N3CCCCC3)nc(N3CCCCC3)n2)cc1"
assigned_category = "true (1)"

[[record]]
compound = "SCc1ccc(CS)cc1"
assigned_category = "true (1)"

[[record]]
compound = "COc1ccc(/C=C(/C(=O)N2CCN(c3ccccc3)CC2)c2cc(OC)c(OC)c(OC)c2)cc1O"
assigned_category = "false (0)"

[[record]]
compound = "CN(C)CCOc1nc2c3cccnc3cc(-c3cccc(Cl)c3)c2c2ncccc12"
assigned_category = "false (0)"

[[record]]
compound = "CCc1oc2ccccc2c1C(=O)c1cc(I)c(O)c(I)c1"
assigned_category = "true (1)"

[[record]]
compound = "Nc1n[nH]c2ccc([C@@H]3Nc4c(F)cc5[nH]ncc5c4[C@H]4C5CCC(C5)[C@@H]34)cc12 (stereo not given in full)"
assigned_category = "false (0)"

[[record]]
compound = "O=C1Cc2c([nH]c3ccc([N+](=O)[O-])cc23)-c2ccccc2N1"
assigned_category = "false (0)"

[[record]]
compound = "O=C1/C(=C\\c2cccn2Cc2ccc(Cl)cc2)c2ccccc2N1c1c(Cl)cccc1Cl"
assigned_category = "false (0)"


----------
# System: HCC-2998 colon
# measurement-notes: NCI-60 one-dose screen, 48 h
# reported-conditions: 10 µM unless noted
This is part of a sample that, as a whole, favours compounds with a hit. Of some 83,000 tested, about 20% had one in any assay. Activity calls are given as the source filed them. Rule for the calls: active = growth percent below 10; inactive = the rest.
Outcome codes: TRUE for active, FALSE for inactive

[[record]]
compound = "Fc1[nH]nc2ccc([C@@H]3Nc4ccc5[nH]ncc5c4[C@H]4C5CCC(C5)[C@@H]34)cc12 (stereo not given in full)"
assigned_category = "FALSE"

[[record]]
compound = "CCOP(=O)(O)OP(=O)(O)OCC"
assigned_category = "FALSE"

[[record]]
compound = "CCCCCCCCCCCCCCCC1=NCC[N+]1(CCO)CCO"
assigned_category = "FALSE"

[[record]]
compound = "NC(N)=N/N=C\\c1cccc(OCc2ccccc2)c1"
assigned_category = "TRUE"

[[record]]
compound = "C=C(C)[C@@H]1CC[C@]2(C)[C@H](CC=C3[C@@H]4C[C@](C)(C(=O)N5CCN(C)CC5)CC[C@]4(C)CC[C@]32C)[C@@]1(C)CCC#N"
assigned_category = "FALSE"

[[record]]
compound = "COc1cc2c(cc1OCCCOc1cc3c(cc1OC)C(=O)N1CCC[C@H]1C=N3)C=CC(C)(C)O2"
assigned_category = "FALSE"

[[record]]
compound = "CC(=O)c1cccc(Nc2ncnc3ccc(NC(=O)c4ccco4)cc23)c1"
assigned_category = "FALSE"

[[record]]
compound = "Cc1ccc(N=CNN=C(N)N)cc1"
assigned_category = "FALSE"

[[record]]
compound = "COc1ccc(C(=O)C(CN(C)C)c2ccccc2)cc1 (stereo not given)"
assigned_category = "FALSE"

[[record]]
compound = "CCN(CC)Cc1cc(Nc2nc(NC3CCC(N(C)C)CC3)c3ccccc3n2)ccc1OC (stereo not given)"
assigned_category = "FALSE"

[[record]]
compound = "COc1ccc2cc(-c3nc(C)c(C(C)=O)c(-c4ccc(C)cc4)n3)ccc2c1"
assigned_category = "FALSE"

[[record]]
compound = "Cc1ccc(NC(=O)c2nc(S(C)=O)oc2-c2ccc(F)cc2)cc1Nc1nccc(-c2cccnc2)n1 (stereo not given)"
assigned_category = "FALSE"

[[record]]
compound = "COc1ccc2c(c1)CCCC21C(=O)Nc2ccccc21 (stereo not given)"
assigned_category = "FALSE"

[[record]]
compound = "CCCCNCCC(O)c1cc2ccc(C(F)(F)F)cc2c2cc(C(F)(F)F)ccc12 (stereo not given)"
assigned_category = "TRUE"

[[record]]
compound = "CSCCC1NC(=O)C(C(C)=Nc2ccccc2)=C1O (stereo not given)"
assigned_category = "FALSE"

[[record]]
compound = "COc1ccc(NC(=O)/C=C/c2ccc(NC(=O)N3CCCC3)cc2)cn1"
assigned_category = "FALSE"

[[record]]
compound = "N#Cc1c(N)n(C2OC(CO)C(O)C2O)c2ncnc(N)c12 (stereo not given)"
assigned_category = "TRUE"

[[record]]
compound = "CN(C)c1ccc(N2Cc3ccccc3OC3=C2C(=O)c2c(O)ccc(O)c2C3=O)cn1"
assigned_category = "TRUE"

[[record]]
compound = "COc1ccc(NC(=O)c2ccc(C(F)(F)F)nc2Nc2ccc(Cl)cc2C)cc1Cl"
assigned_category = "FALSE"

[[record]]
compound = "Nc1ccc(C(OC(=O)c2cc3ccccc3c(Cc3c(O)c(C(=O)OC(c4ccc(N)cc4)(c4ccc(N)cc4)c4ccc(N)cc4)cc4ccccc34)c2O)(c2ccc(N)cc2)c2ccc(N)cc2)cc1"
assigned_category = "TRUE"


----------
# System: HOP-62 NSCLC
# measurement-notes: NCI-60 one-dose screen, 48 h
# reported-conditions: 10 µM unless noted
# Procedure: Growth inhibition of the HOP-62 human Non-Small Cell Lung tumor cell line is measured as a screen for anti-cancer activity. Cells are grown in 96 well plates and exposed to the test compound for 48 hours. Compounds are tested at a single concentration, which is 10^-5 M for most compounds. The reported endpoint is percent growth (GI% or GIPRCNT), where numbers from 0 - 100% represent growth inhibition, and numbers from -100% - 0 represent cell death. […]
About 83,000 compounds went through this panel and 20% of them were active in at least one assay; those are over-represented in the sample as a whole. Activity calls are given as the source filed them. The calls were made as follows: active = growth percent below 10; inactive = the rest.
Outcome codes: 1 (active), 0 (inactive)

[[record]]
molecule = "C#CC[C@@H]1C[C@]2(C)[C@H]3CC[C@@H]4[C@H]5C(C(=C)C)CC[C@]5(C(=O)NCCCCCCCCN)CC[C@@]4(C)[C@]3(C)CC[C@H]2C(C)(C)[C@H]1OC(C)=O (some centres undefined)"
assigned_category = 0

[[record]]
molecule = "NS(=O)(=O)c1ccc(N2N=C(c3ccc(Br)cc3)CC2c2cn(-c3ccccc3)nc2-c2ccc(Cl)cc2)cc1 (centres undefined)"
assigned_category = 0

[[record]]
molecule = "COc1ccc(C2CC(c3cccc(Nc4ccnc5cc(Cl)ccc45)c3)=NN2c2ccc(Cl)cc2)cc1 (centres undefined)"
assigned_category = 0

[[record]]
molecule = "O=C(CCCCCCc1nc2ccc(Br)cc2[nH]1)NO"
assigned_category = 0

[[record]]
molecule = "CNCCCNc1ccnc2cc(Cl)ccc12"
assigned_category = 1

[[record]]
molecule = "CCCN(CCC)CC(O)COc1ccccc1C(=O)Nc1ccccc1 (centres undefined)"
assigned_category = 0

[[record]]
molecule = "CCOC(=O)c1c(NC(=O)c2ccccc2)sc2c(O)c(CN(CC)CC)ccc12"
assigned_category = 1

[[record]]
molecule = "CN(C)CCOc1nc2c3ccncc3cc(-c3cccc(Cl)c3)c2c2cnccc12"
assigned_category = 0

[[record]]
molecule = "C[C@]12CCc3nc(Nc4ccc(O)cc4)sc3C1=CC[C@@H]1[C@@H]2CC[C@]2(C)/C(=N/NC(N)=S)CC[C@@H]12"
assigned_category = 1

